- target.entity: GST-ANAC055(1-171) (Arabidopsis thaliana, UniProt Q9LDY8 1-171)
- Sequence: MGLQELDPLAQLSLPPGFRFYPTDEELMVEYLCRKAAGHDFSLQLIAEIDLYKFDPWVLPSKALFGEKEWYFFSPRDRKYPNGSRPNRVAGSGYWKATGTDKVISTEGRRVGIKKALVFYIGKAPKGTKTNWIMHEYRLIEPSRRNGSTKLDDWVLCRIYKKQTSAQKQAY
- test.name: universal protein binding microarray (PBM); transcription factors of Arabidopsis thaliana; high values mean tight binding
- experimental.parameters: protein: recombinant; tags: GST; chain copies: 2; dsDNA, one strand shown
outcome.measure: binding signal (E-score)

[[record]]
sequence_input = "AAGTAATC"
result_unit = "E-score"
endpoint_result = 0.154

[[record]]
sequence_input = "ACGTAAGC"
result_unit = "E-score"
endpoint_result = 0.406

[[record]]
sequence_input = "TGACTGCA"
result_unit = "E-score"
endpoint_result = 0.0624

[[record]]
sequence_input = "CGTCAAAC"
result_unit = "E-score"
endpoint_result = 0.163

[[record]]
sequence_input = "TTACGCAA"
result_unit = "E-score"
endpoint_result = 0.335

[[record]]
sequence_input = "GCACGTTA"
result_unit = "E-score"
endpoint_result = 0.205

[[record]]
sequence_input = "ACGGCAAC"
result_unit = "E-score"
endpoint_result = 0.375

[[record]]
sequence_input = "ACGCAACA"
result_unit = "E-score"
endpoint_result = 0.35

[[record]]
sequence_input = "GCACGTAA"
result_unit = "E-score"
endpoint_result = 0.433

[[record]]
sequence_input = "TACGCGAA"
result_unit = "E-score"
endpoint_result = 0.0984

[[record]]
sequence_input = "ACGCAACC"
result_unit = "E-score"
endpoint_result = 0.421

[[record]]
sequence_input = "GTTTCGTA"
result_unit = "E-score"
endpoint_result = 0.15

[[record]]
sequence_input = "GCACGGAA"
result_unit = "E-score"
endpoint_result = 0.457

[[record]]
sequence_input = "TAAGCAAA"
result_unit = "E-score"
endpoint_result = 0.208

[[record]]
sequence_input = "ACGTTTTC"
result_unit = "E-score"
endpoint_result = 0.304

[[record]]
sequence_input = "AGACGTAA"
result_unit = "E-score"
endpoint_result = 0.389

[[record]]
sequence_input = "CACGCATA"
result_unit = "E-score"
endpoint_result = 0.0626

[[record]]
sequence_input = "ATAGCGTA"
result_unit = "E-score"
endpoint_result = 0.136

[[record]]
sequence_input = "TAAGGAAA"
result_unit = "E-score"
endpoint_result = 0.109

[[record]]
sequence_input = "AATAGTCA"
result_unit = "E-score"
endpoint_result = 0.0507

[[record]]
sequence_input = "GAAAGGAA"
result_unit = "E-score"
endpoint_result = 0.168

[[record]]
sequence_input = "TGAAGAAA"
result_unit = "E-score"
endpoint_result = 0.114

[[record]]
sequence_input = "CTACGTTA"
result_unit = "E-score"
endpoint_result = 0.144

[[record]]
sequence_input = "ATACGTTA"
result_unit = "E-score"
endpoint_result = 0.139

[[record]]
sequence_input = "CAAGTAAC"
result_unit = "E-score"
endpoint_result = 0.203

[[record]]
sequence_input = "AGTCAAAC"
result_unit = "E-score"
endpoint_result = 0.103

[[record]]
sequence_input = "ACGTTAAC"
result_unit = "E-score"
endpoint_result = 0.228

[[record]]
sequence_input = "CTTACTTA"
result_unit = "E-score"
endpoint_result = 0.137

[[record]]
sequence_input = "CACGCTTC"
result_unit = "E-score"
endpoint_result = 0.165

[[record]]
sequence_input = "GACTTTTA"
result_unit = "E-score"
endpoint_result = 0.051

[[record]]
sequence_input = "TGAAGTAA"
result_unit = "E-score"
endpoint_result = 0.155

[[record]]
sequence_input = "TACGTAAA"
result_unit = "E-score"
endpoint_result = 0.384

[[record]]
sequence_input = "CACGGAAC"
result_unit = "E-score"
endpoint_result = 0.466

[[record]]
sequence_input = "ATACGTCA"
result_unit = "E-score"
endpoint_result = 0.267

[[record]]
sequence_input = "ATGACGTG"
result_unit = "E-score"
endpoint_result = 0.366

[[record]]
sequence_input = "CACGCTAC"
result_unit = "E-score"
endpoint_result = 0.0982

[[record]]
sequence_input = "ATAACGTG"
result_unit = "E-score"
endpoint_result = 0.143

[[record]]
sequence_input = "CTTACTTC"
result_unit = "E-score"
endpoint_result = 0.191

[[record]]
sequence_input = "TGACGTAA"
result_unit = "E-score"
endpoint_result = 0.364

[[record]]
sequence_input = "AACACGTT"
result_unit = "E-score"
endpoint_result = 0.284

[[record]]
sequence_input = "GTCAATAA"
result_unit = "E-score"
endpoint_result = 0.134

[[record]]
sequence_input = "TTAAGCAA"
result_unit = "E-score"
endpoint_result = 0.133

[[record]]
sequence_input = "ATTAGTCA"
result_unit = "E-score"
endpoint_result = 0.0956

[[record]]
sequence_input = "AGGTCAAT"
result_unit = "E-score"
endpoint_result = 0.0969

